# ASSAY: Anticancer activity against human BRCA1-deficient MDA-MB-436 cells after 96 hrs by MTT assay
# Assay type: functional
# SETTINGS: MDA-MB-436, 96 h
One threshold, 60 µM, splits the recorded CC50 values: lower ones are Criterion met, equal or higher ones are Criterion not met.

> print(dat)
                               smiles.record           category
 1  CCCCNCc1ccc(-c2[nH]c3cc(F)cc4c3c2C(=O)NNC4=O)cc1  Criterion not met
 2  CCCNCc1ccc(-c2[nH]c3cc(F)cc4c3c2C(=O)NNC4=O)cc1      Criterion met
 3  CNCc1ccc(-c2[nH]c3cc(F)cc4c3c2C(=O)NNC4=O)cc1      Criterion met
 4  CNCc1ccc(-c2[nH]c3cc(F)cc4c3c2CCNC4=O)cc1      Criterion met
 5  CCCCNCc1ccc(-c2cc3c4c(c[nH]c4c2)C(=O)NNC3=O)cc1  Criterion not met
 6  CC(C)NCc1ccc(-c2cc3c4c(c[nH]c4c2)C(=O)NNC3=O)cc1  Criterion not met
 7  CNCc1ccc(-c2[nH]c3cccc4c3c2C(=O)NNC4=O)cc1      Criterion met
 8  CC(C)NCc1ccc(-c2[nH]c3cccc4c3c2C(=O)NNC4=O)cc1      Criterion met
 9  CCCCNCc1ccc(-c2[nH]c3cccc4c3c2C(=O)NNC4=O)cc1      Criterion met
10  CCCNCc1ccc(-c2cc3c4c(c[nH]c4c2)C(=O)NNC3=O)cc1  Criterion not met

###

# Test system: MCF7
# ASSAY: Anticancer activity against human MCF7 cells after 96 hrs by MTT assay
# Assay type: functional
# SETTINGS: MCF7, 96 h
# maps each entry to its CC50
MEASURE NAME: CC50 (µM)

> print(dat)
                               smiles.record  reported.result
 1  CCCCNCc1ccc(-c2[nH]c3cccc4c3c2C(=O)NNC4=O)cc1               18
 2  CNCc1ccc(-c2[nH]c3cc(F)cc4c3c2CCNC4=O)cc1             19.5
 3  CCCNCc1ccc(-c2[nH]c3cc(F)cc4c3c2C(=O)NNC4=O)cc1             25.9
 4  CNCc1ccc(-c2[nH]c3cc(F)cc4c3c2C(=O)NNC4=O)cc1             65.3
 5  CNCc1ccc(-c2[nH]c3cccc4c3c2C(=O)NNC4=O)cc1             83.1
 6  CCCCNCc1ccc(-c2cc3c4c(c[nH]c4c2)C(=O)NNC3=O)cc1              237
 7  CC(C)NCc1ccc(-c2cc3c4c(c[nH]c4c2)C(=O)NNC3=O)cc1             1920
 8  CCCNCc1ccc(-c2cc3c4c(c[nH]c4c2)C(=O)NNC3=O)cc1             5560
 9  CC(C)NCc1ccc(-c2[nH]c3cccc4c3c2C(=O)NNC4=O)cc1             40.7
10  CNCc1ccc(-c2cc3c4c(c[nH]c4c2)C(=O)NNC3=O)cc1             1240
11  CCCNCc1ccc(-c2[nH]c3cccc4c3c2C(=O)NNC4=O)cc1              101
